- Tested on: S. epidermidis (derived from ATCC ® 14990 ™)
- method_notes: Bacteriostasis, log reduction
- Assay type: cell-based
- run_conditions: S. epidermidis ATCC 14990; 24 h
parameter: Average result

Please review the entries below; each comes with its answer.
{"compound": "Oc1nc(-c2ccc(C(F)(F)F)cc2)nc2c1CSCC2 [XAV939, reference compound]", "result": "5.5 × 10^4"}
{"compound": "COC(=O)NCCOC(C)(C)c1ccc(-c2nc3c(c(=O)[nH]2)CSCC3)cc1", "result": "8.0 × 10^2"}
{"compound": "O=c1[nH]c(-c2ccc(-c3ccc(B(O)O)cc3)cc2)nc2c1CSCC2", "result": "1.1 × 10^4"}

[Q] Lab request: please report Average result under test system S. epidermidis (derived from ATCC ® 14990 ™) for `O=c1[nH]c(-c2ccc(B(O)O)cc2)nc2c1CSCC2`
[A] 3.1 × 10^5

[Q] So what Average result did `CC(C)(OCCO)c1ccc(-c2nc3c(c(=O)[nH]2)CSCC3)cc1` get with S. epidermidis (derived from ATCC ® 14990 ™)?
[A] 6.0 × 10^2

[Q] Fill in the recorded Average result for this compound, with S. epidermidis (derived from ATCC ® 14990 ™) as test system: `O=c1[nH]c(-c2ccc(-c3ccc(Br)nc3)cc2)nc2c1CSCC2`
[A] 2.8 × 10^4

====

- Test system: HEK293 SuperTOPFlash reporter cells, Wnt promoter
- method_notes: HEK CELL Wnt Assay (luciferase reporter)
- Assay type: cell-based
- run_conditions: serial dilutions, with or without 50 ng/mL Wnt3a; 18 h
parameter: IC50 (nM)
Express it in nM; write the number only.

{"compound": "O=c1[nH]c(-c2ccc(-c3ccc(B(O)O)cc3)cc2)nc2c1CSCC2 [Compound 10]", "result_number": 5}
{"compound": "O=c1[nH]c(-c2ccc(-c3ccc(B(O)O)cc3O)cc2)nc2c1CSCC2 [Compound 28]", "result_number": 2}

[Q] Item: Oc1nc(-c2ccc(C(F)(F)F)cc2)nc2c1CSCC2 [XAV939, reference compound] Test system: HEK293 SuperTOPFlash reporter cells, Wnt promoter Read-out: IC50 Value: ?
[A] 50

====

Each record here notes measured Log Reduction.
- Test system: S. aureus (derived from ATCC ® 6538 ™)
- method_notes: Bacteriostasis, log reduction
- Type: cell-based
- run_conditions: S. aureus ATCC 6538; 24 h
Respond numerically, and do not add a unit to the figure.

Observe how each entry below is paired with its result.
{"compound": "O=c1[nH]c(-c2ccc(-c3ccc(B(O)O)cc3)cc2)nc2c1CSCC2 [Compound 10]", "Log Reduction": 0.1}
{"compound": "O=c1[nH]c(-c2ccc(-c3ccc(Br)nc3)cc2)nc2c1CSCC2 [Compound 7]", "Log Reduction": 2.4}
{"compound": "COC(=O)NCCOC(C)(C)c1ccc(-c2nc3c(c(=O)[nH]2)CSCC3)cc1 [Compound 18]", "Log Reduction": 0.5}
{"compound": "O=c1[nH]c(-c2ccc(B(O)O)cc2)nc2c1CSCC2 [Compound 1]", "Log Reduction": 0.4}
{"compound": "CC(C)(OCCO)c1ccc(-c2nc3c(c(=O)[nH]2)CSCC3)cc1 [Compound 8]", "Log Reduction": 0.6}

Proceed to the following item.
[Q] Log Reduction for Oc1nc(-c2ccc(C(F)(F)F)cc2)nc2c1CSCC2 [XAV939, reference compound] ?
[A] 1.9
